- experimental-protocol: Solubility of compound of Chemical Formula 1 in various solvents
- Type: physicochemical
- experimental-context: organic solvent or mixture; Methanol (MeOH), 25° C.; read-out: Solubility
quantity-kind: solubility (µg/mL)
Field: numeric (µg/mL). Do not append units.

// returns reported solubility for input O=S1(=O)CCN(Cc2cc(NC3CCOCC3)c3[nH]c(-c4ccccc4)cc3c2)CC1 590

---

- experimental-protocol: Solubility of compound of Chemical Formula 1 in various solvents
- Assay type: physicochemical
- experimental-context: Water, 50° C.; read-out: Solubility
quantity-kind: solubility (µg/mL)
// return numeric value only (unit: µg/mL, not printed)

# get_value(readout='solubility', item= O=S1(=O)CCN(Cc2cc(NC3CCOCC3)c3[nH]c(-c4ccccc4)cc3c2)CC1 ) 46
